target: SARS-CoV-2 Main Protease (SARS-CoV-2) (UniProt P0DTD1)

{"columns": ["compound", "assay_target", "censoring_operator", "IC50, nM"],
 "data": [
  ["O=C(Cc1cc(Cl)cc(Nc2ccc(I)cc2)c1)Nc1cncc2ccccc12", "SARS-CoV-2 Main Protease (SARS-CoV-2) (UniProt P0DTD1)", "=", 1840],
  ["O=C(NCCc1cccc(F)c1)C(c1cccnc1)N(C(=O)c1cnc[nH]1)C1CCCCCC1 (centres undefined)", "SARS-CoV-2 Main Protease (SARS-CoV-2) (UniProt P0DTD1)", ">", 99000],
  ["C=CC(=O)N(c1ccc(C(F)(F)F)cc1)C(C(=O)NCCc1cccc(F)c1)c1cccnc1 (centres undefined)", "SARS-CoV-2 Main Protease (SARS-CoV-2) (UniProt P0DTD1)", "=", 20100],
  ["CC1(C(=O)Nc2cncc3cccc(Cl)c23)CNS(=O)(=O)c2ccc(Cl)cc21 (centres undefined)", "SARS-CoV-2 Main Protease (SARS-CoV-2) (UniProt P0DTD1)", "=", 1870],
  ["O=C(CCc1nc2ccccc2[nH]1)N1CCC(CCc2ccccc2)CC1", "SARS-CoV-2 Main Protease (SARS-CoV-2) (UniProt P0DTD1)", ">", 99500],
  ["Cc1cccc(C)c1N(C(=O)CN1CCNCC1)c1cc(Cl)cc(CC(=O)Nc2cncc3ccccc23)c1", "SARS-CoV-2 Main Protease (SARS-CoV-2) (UniProt P0DTD1)", "=", 2740],
  ["C[C@H](C(=O)O)C(=O)SCCNC(=O)CCNC(=O)[C@H](O)C(C)(C)COP(=O)(O)OP(=O)(O)OC[C@H]1O[C@@H](n2cnc3c(N)ncnc32)[C@H](O)[C@@H]1OP(=O)(O)O (stereo in doubt)", "SARS-CoV-2 Main Protease (SARS-CoV-2) (UniProt P0DTD1)", ">", 99000],
  ["O=C(NC1CCCCC1)[C@@H]1CN(C(=O)CCl)CCN1S(=O)(=O)c1ccsc1 (stereo in doubt)", "SARS-CoV-2 Main Protease (SARS-CoV-2) (UniProt P0DTD1)", "=", 1140],
  ["COCCCNC(=O)C(c1cccnc1)N(C(=O)c1cocn1)c1ccc(C(C)(C)C)cc1 (centres undefined)", "SARS-CoV-2 Main Protease (SARS-CoV-2) (UniProt P0DTD1)", "=", 8790]
]}
